Test: protein stability index of a GFP-peptide fusion (yeast GPS) (PSI 1-4); higher = more stable; sorted into four equal gates, so the index is relative within each strain
Conditions: doa10∆
measurementLabel: protein stability index
// print number alone

Lookup result for IQMNNSLQNNLQNNINN [SNF11] ; measured protein stability index: 3.35

Summary for this sequence, DLSSAASASGAAGAGAA [FAS2] : protein stability index is 1.78

Quick note, protein stability index for ILTSKVNAIKNEVKEWA [DSN1] landed at 2.64

Input RKPILLPDPKPLPLDLN [ITC1] . Output protein stability index: 2.34

For this sequence ( ASSLRFGNSLSNTVNAN [YDL088C/ASM4] ), measured protein stability index is 2.81

Value of measured protein stability index for the entry ALPNIENDIIKLSDSKT [BRR2] : 2.79

Input ATRHVLMRQGVLGIKVK [RPS3] . Output protein stability index: 2.07

ISGNPPLLYNSLCTVWK [SRB5] has a reported protein stability index of 2.56

protein stability index in this record for VHVQLLINLKISPLMKS [SRB8] : 1.44

protein stability index measured on NEEATPIPSSETKADGI [RRP6] = 3.04

For reference, reported protein stability index for QFLEQGLSIHPTQITQY [SRP68] stands at 2.17

For reference, reported protein stability index for KQRTKKEDKSEAIDGNG [SNF2] stands at 3.55

The sequence identified as FGQRAVLKFAAHTGATP [RPS0A] registered its protein stability index at 2.18

// sample SSNPLGITGNLDRIPMH [COB] , its protein stability index was 2.62

What the record says about VEDTLHVNKRKRVSGTS [YOR098C/NUP1] : protein stability index is 1.42

====

Exercise: for every item that follows, state its recorded protein stability index.
Experiment: protein stability index of a GFP-peptide fusion (yeast GPS) (PSI 1-4); higher = more stable; sorted into four equal gates, so the index is relative within each strain
Settings: pdr5∆
Please state the value as a number alone, without comment.

protein stability index recorded for this sequence, KVKHDSQPFIKFLNFRP [SSN2] , is 2.6

Form field protein stability index, entry QPVNINLDSSITQDGKF [YMR129W/POM152] : 3.18

Reported protein stability index for LAKKIAPGKVELAINLI [SMC2] was 2.88

Field protein stability index (entry YIIQGSNTNDNISIITL [RGR1] ) reads 2.29

For record WHIEETGEWFSSYEEFL [ITC1] the listed protein stability index is 2.63

Given item LVLDLLTWLSSFSVCKI [IRR1] , the value recorded as its protein stability index is 1.59

# sequence RPNGRKDHDLKIPLPEV [POP1] ; its protein stability index = 3.18

So for SWNESEDTLSGYDPIVS [PRP28] , the logged protein stability index turned out to be 3.14

// protein stability index value for STPGGGSVFNMNGNTNA [YOR098C/NUP1] : 3.6

QMIQQRHQQLLRSRLQQ [SNF5] has a reported protein stability index of 2.14

sequence KDLKHIIYYKFNKNLGK [PRP8] , protein stability index observed: 1.28

Just so you know, measured protein stability index for KLRRECSNPTCGAGVFL [RPS31] came out at 2.44

// field: protein stability index; key: LAELINMTTIADRNDDD [SRB6] ; value = 2.64

The reported value for SLMSSQNKLFYITNADD [SIR3] in terms of protein stability index is 2.02

====

Assignment: determine reported protein stability index for the given sequences.
Assay: protein stability index of a GFP-peptide fusion (yeast GPS) (PSI 1-4); higher = more stable; sorted into four equal gates, so the index is relative within each strain
Details: ubr1∆
API doc: respond with a numeric literal and nothing else, no unit.

// field: protein stability index; key: ELKKYMDKKILLNINGS [SMX2] ; value = 2

The recorded protein stability index for entry YTFKTSMRVKPSASLKL [YMR129W/POM152] equals 2.8

get_value(item= GIDQYSFNVKENQPFHG [AAR2] , readout=protein stability index) returns 2.9

Notebook: RKVVFPFQLDVADMLTP [UBP6] , protein stability index read as 2.05

Measured protein stability index, SDGIVLAAERKVTSTLL [PRE9] : 1.85

# sequence IDNSPQAISYLHKLQRM [GRR1] ; its protein stability index = 2.69

MATNKIETLDPALIRPG [RPT2] yielded protein stability index of 3

Reported protein stability index for NNNDNNNSNTVASSTNF [SWI1] was 3.02

Summary for this sequence, IAAERAARKAANKEKRA [RPL7B] : protein stability index is 3.3

protein stability index recorded for this sequence, QNTVPNVLNQINQIFSP [GAL11] , is 2.44

# sequence LICSIGLHSSEYKLRSL [ECM29] ; its protein stability index = 2.56

Entry LWELALAFIPNILALNL [YML031W/NDC1] ; protein stability index = 1.34

The sequence identified as KWDDLNEQLTLLSKKHG [RPN5] registered its protein stability index at 2.94

Memo: QQQQQQQQQQQNNSTGS [SSN2] , reported protein stability index: 2.85

====

Test: protein stability index of a GFP-peptide fusion (yeast GPS) (PSI 1-4); higher = more stable; sorted into four equal gates, so the index is relative within each strain
Conditions: ubr1∆
# protein stability index >= 3 gives true (1), anything below gives false (0)

State whether the measured protein stability index reaches 3, counting equality as reaching it, for MSACVGQQSVEGKRIAF [RPO21]
false (0)

Does the reported protein stability index for KKLKPIVAKYDPPIIIF [PRP28] fall at or above the 3 mark?
false (0)

Quick check, protein stability index >= 3? IPHFIDNNSSLNVSNTK [PRP8]
false (0)

Assess whether reported protein stability index for LPNQIPGEYITTIKAIF [YMR129W/POM152] sits at 3 or higher.
true (1)

Is protein stability index at least 3? Consider AGYTTHLMKRIQKGPVR [RPS17A]
false (0)

For this sequence, is measured protein stability index 3 or higher? QRKNIQSLELMIYDDAH [BRR2]
false (0)

Hi, just wondering whether YSPSNEISISFDVNNID [YDL116W/NUP84] shows protein stability index of 3 or higher.
false (0)

Assess whether reported protein stability index for WLAAATATGIKVFSLDP [ASC1] sits at 3 or higher.
false (0)

Quick check, protein stability index >= 3? VGKLFRVGVVSILEAGD [RPL30]
false (0)

Could you tell me if the measured protein stability index of LLFWTDPRNLVNQTGST [YCG1] reaches 3 or more?
false (0)

Confirm if protein stability index reported for the sequence ETHETNISNAKLANFFS [YAR002W/NUP60] is 3 or above.
true (1)

Identify whether the reported protein stability index of the following sequence is 3 or greater: TSSRGRDHKSYSQSPPR [SMC4]
false (0)

Decide: is the reported value of protein stability index for KRLIAHDWLNALDGDLI [YCG1] equal to or greater than 3?
true (1)

Check this sequence for protein stability index at or above 3: MTSENPDVLLSRVINVV [RRP6]
false (0)

Could you verify whether the entry KNFDMLNSMEKDRISHE [PCI8] shows protein stability index of no less than 3?
false (0)

# check: protein stability index of FENCYLEGNDIHALAAK [FAS1] is greater than or equal to 3
false (0)

Given the entry LPKYKEKKAASAKQTAP [MED7] , answer whether its protein stability index meets or surpasses 3.
false (0)

For this sequence, is measured protein stability index 3 or higher? TATLAWGVNLPAHTVII [BRR2]
false (0)

# bool: protein stability index of YISFIKDDRFVPVRKFK [RPN2] >= 3
false (0)

Could you tell me if the measured protein stability index of DDDILIIRPILGKVRFA [SRB4] reaches 3 or more?
false (0)

Hi team, for YIDIRTNNVLRKLGLLG [MTW1] , is the recorded protein stability index at or above 3?
false (0)

Is reported protein stability index greater than or equal to 3 here: QQQQIQVPLQQTQAIAQ [YGR119C/NUP57]
false (0)

Form field: protein stability index at least 3? Entry: MKLDDSSKTRNVLNRIQ [ITC1]
false (0)

For this sequence, is measured protein stability index 3 or higher? KFKKEKFDIIIVDTSGR [SRP54]
true (1)

Given NLCGDISLEALNFYITN [SIR3] , state whether its protein stability index is at least 3.
false (0)

Is protein stability index for GMNLLSNLSQNVVPYHR [SWI1] at or above 3?
false (0)

Exam item: decide whether the reported protein stability index for VLNQQLPIESQFVSKLV [BRR2] is at least 3.
false (0)

Check the entry ELLSMNIAPRLRLEDIF [RET1] : does protein stability index equal or exceed 3?
false (0)

Given AEKSFKPPKNKYKVVRR [SEC65] , state whether its protein stability index is at least 3.
true (1)

API: above_or_equal(metric=protein stability index, cutoff=3) for item SFVHGVVGQLFQIDNDN [SMC2]
true (1)

Entry VTVEQLRSIYHQFHDIL [NSL1] : is its protein stability index no less than 3?
false (0)

Would you say EFTENELNVDSMDVDDK [ITC1] shows protein stability index at minimum 3?
true (1)

Check the entry VKSEVDVQVDAEEKREA [ITC1] : does protein stability index equal or exceed 3?
true (1)

Does AMFFGNYGSSLQWHAMI [AAR2] have a reported protein stability index of at least 3?
false (0)

Kindly determine if protein stability index recorded for LESYKTQAKKLYHHTTK [SRP72] is above or exactly 3.
false (0)

API: above_or_equal(metric=protein stability index, cutoff=3) for item REKLAEVYKAEKDAVSV [RPS24A]
true (1)

State whether the measured protein stability index reaches 3, counting equality as reaching it, for NYFVDTDLKKIIKANQL [RET1]
false (0)

I'd appreciate it if you could say whether ASMLGLFVFTEGWPKFQ [QCR10] has protein stability index at least equal to 3.
false (0)

Given EPAIEEENGDSIKEHST [MED1] , state whether its protein stability index is at least 3.
true (1)

Please tell me: is the sequence LQNNSDSESDSDSETNH [SKP1] at or over 3 in terms of protein stability index?
false (0)

Confirm if protein stability index reported for the sequence ALIENWAADSVSSRVRG [FAS1] is 3 or above.
true (1)

Exam item: decide whether the reported protein stability index for YSPTSPSYSPTSPSYSP [RPO21] is at least 3.
false (0)

Check the entry SPQQFLRAHTDDSRNPD [PRE2] : does protein stability index equal or exceed 3?
false (0)

Tell me whether protein stability index is at least 3 here: LSGVSNSMDMVDGMAKV [RGR1]
true (1)

Test whether the sequence TNAAFPFHDPEARLFNI [ECM29] records protein stability index of 3 or higher.
false (0)

Can ILGKNFDSVIVENLTVA [SMC1] be said to have protein stability index at or above 3?
false (0)

Determine whether this sequence has protein stability index no lower than 3: TEKNREIYKQLNDRQEE [YIL149C/MLP2]
true (1)

Hi, just wondering whether FLRPTYPDLCSIYDKWT [RPN1] shows protein stability index of 3 or higher.
false (0)
